target: T1, Human TNFa N-his trimers (human, UniProt P01375 77-233); experiment: SPR BIAcore T100, His-tagged human TNF trimers captured on NTA chip, scFv as analyte
T1 construct: Captured at 5 nM on an NTA sensor chip by the N-terminal his-tags; also called His-tagged TNF (produced at ESBATech); not shown: N-terminal his-tag
T1 sequence (P01375 77-233 limits assumed): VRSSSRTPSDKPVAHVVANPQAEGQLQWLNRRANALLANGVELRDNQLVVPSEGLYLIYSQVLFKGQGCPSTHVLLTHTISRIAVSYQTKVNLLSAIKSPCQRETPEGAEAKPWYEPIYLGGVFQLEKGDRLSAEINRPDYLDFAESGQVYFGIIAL
OBSERVED PROPERTY: pKd
Note on pKd: it is the negative log10 of concentration, concentration in mol/L.

Item EP6_min (scFv) EIVMTQSPSTLSASVGDRVIITCQASESIYSGLAWYQQKPGKAPKLLIYQASTLASGVPSRFSGSGSGAEFTLTISSLQPDDFATYYCQQGFGTSNVENPFGQGTKLTVLGGGGGSGGGGSGGGGSGGGGSEVQLVESGGGLVQPGGSLRLSCAASGFSLSRYGVSWVRQAPGKGLEWVSTIGEAGRAYYANWARSRFTISRDNSKNTLYLQMNSLRAEDTAVYYCAKGEVFNNGWGAFNIWGQGTLVTVSS has what recorded pKd?
6.97

Item EP19_max (scFv) EIVMTQSPSTLSASVGDRVIITCQASDNIYRGLAWYQQKPGKAPKLLIYDASTLQSGVPSRFSGSGSGTQFTLTISSLQPDDFATYYCLGVYGYSSDDGAAFGQGTKLTVLGGGGGSGGGGSGGGGSGGGGSEVQLVESGGGLVQPGGSLRLSCTVSGFSLNSNEISWVRQAPGKGLEWVGYIGNGGMTHYASWAKGRFTISRDTSKNTVYLQMNSLRAEDTAVYYCASSVEYTDLYYLNIWGQGTLVTVSS has what recorded pKd?
8.54

Item EP15_max (scFv) EIVMTQSPSTLSASVGDRVIITCQASENIYTSLAWYQQKPGKAPKLLIYSASTLASGVPSRFSGSGSGTEFTLTISSLQPDDFATYYCQQGFATSNVENPFGQGTKLTVLGGGGGSGGGGSGGGGSGGGGSEVQLVESGGGSVQPGGSLRLSCTVSGFSLSRYGVSWVRQAPGKGLEWVGAIGETGRAYYANWAKSRSTISRDTSKNTVYLQMNSLRAEDTATYYCARGEEFNNGWGAFNIWGQGTTVTVSS has what recorded pKd?
8.83
